Reported residual activity values for the following molecules.
- target_of_assay: Serine/threonine-protein kinase 3 (Homo sapiens) (UniProt Q13188)
- Sequence (Q13188 whole entry): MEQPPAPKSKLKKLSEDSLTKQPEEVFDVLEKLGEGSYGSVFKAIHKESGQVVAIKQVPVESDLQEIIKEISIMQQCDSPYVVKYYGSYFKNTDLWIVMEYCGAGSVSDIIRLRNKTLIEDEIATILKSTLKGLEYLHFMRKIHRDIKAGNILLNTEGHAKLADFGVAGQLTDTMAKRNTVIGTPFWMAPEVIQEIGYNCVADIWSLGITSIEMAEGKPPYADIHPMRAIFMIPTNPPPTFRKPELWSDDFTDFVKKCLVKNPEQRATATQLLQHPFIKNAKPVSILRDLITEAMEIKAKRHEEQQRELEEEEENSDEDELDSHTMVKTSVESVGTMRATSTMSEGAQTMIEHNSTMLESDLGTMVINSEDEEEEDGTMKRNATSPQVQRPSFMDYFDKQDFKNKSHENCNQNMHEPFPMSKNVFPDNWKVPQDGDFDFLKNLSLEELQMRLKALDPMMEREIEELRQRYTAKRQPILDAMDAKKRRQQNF
- details: at 10 µM
property_measured: residual activity (%)

CO[C@H]1[C@@H](OC)C[C@H](C)[C@@H](OC)C2=CC(=O)C=C(NC(=O)/C(C)=C/C=C/[C@H](OC)[C@@H](OC(N)=O)/C(C)=C/[C@@H]1C)C2=O
102
Cc1nc2cc3nc(-c4cccs4)cnc3cc2n1C
87
O=c1c2ccccc2[nH]c(=S)n1CCN1CCC(=C(c2ccc(F)cc2)c2ccc(F)cc2)CC1
93
O=C1Nc2ccc(Br)cc2/C1=C\c1cc2c([nH]1)CCCC2
61
CCN(CC)C(=O)c1ccc(Nc2nc(OCC3CCCCC3)c3nc[nH]c3n2)cc1
7
Oc1n[nH]c2nnc(-c3c(-c4ccccc4)nn4ccccc34)cc12
86
N#CCCc1ccc2c(c1)-c1[nH]c3ccc([N+](=O)[O-])cc3c1CC(=O)N2
7
CO[C@@H]1[C@H](N(C)C(=O)c2ccccc2)C[C@H]2O[C@]1(C)n1c3ccccc3c3c4c(c5c6ccccc6n2c5c31)C(=O)NC4
0
CC(C)n1cnc2c(NCc3ccccc3)nc(NCCCO)nc21
99

---

- target_of_assay: Serine/threonine-protein kinase TBK1 (Homo sapiens)
- details: at 1 µM
property_measured: residual activity (%)

c1ccc(-c2n[nH]cc2-c2ccnc3ccccc23)nc1
71
Cc1cc2ncc(-c3ccccc3)nc2cc1C
86
Cn1cnc2cc3c(Nc4cccc(Br)c4)ncnc3cc21
83
O=C1NC(=O)c2c1c1c3ccccc3[nH]c1c1[nH]c3cc(Br)ccc3c21
75
C[C@@H](N)[C@H]1CC[C@H](C(=O)Nc2ccncc2)CC1
107
CN(C)CCCn1cc(C2=C(c3c[nH]c4ccccc34)C(=O)NC2=O)c2ccccc21
80
O=C1Nc2cc(Br)ccc2/C1=C1/Nc2ccccc2/C1=N\O
8
COc1cccc(-c2cc(=O)c3ccccc3o2)c1N
97
Nc1nc(Nc2ccc(S(N)(=O)=O)cc2)nn1C(=S)Nc1c(F)cccc1F
-1
Cn1nc2c3c(cccc31)C(=O)c1ccccc1-2
67
Ic1cccc(CSc2nnc(-c3ccncc3)o2)c1
15
Cc1ccc(NC2=CC(=O)c3sc(C)nc3C2=O)cc1
77
O=c1c2ccccc2[nH]c(=S)n1CCN1CCC(=C(c2ccc(F)cc2)c2ccc(F)cc2)CC1
91
CCN(CC)CCCCN1c2ccccc2Oc2ccc(Cl)cc21
91
CC(C)n1cnc2c(NCc3ccccc3)nc(NCCCO)nc21
79
O=c1cc(-c2cccc3c2Sc2ccccc2S3)oc(N2CCOCC2)c1
99
CO[C@H]1C[C@@H]2CC[C@@H](C)[C@@](O)(O2)C(=O)C(=O)N2CCCC[C@H]2C(=O)O[C@H]([C@H](C)C[C@@H]2CC[C@@H](O)[C@H](OC)C2)CC(=O)[C@H](C)/C=C(\C)[C@@H](O)[C@@H](OC)C(=O)[C@H](C)C[C@H](C)/C=C/C=C/C=C/1C
63
CC(C)n1cnc2/c(=N/c3cccc(Cl)c3)nc(NCCO)[nH]c21
57
Nc1n[nH]c2nnc(-c3c(-c4ccccc4)nn4ccccc34)cc12
75
O=C1Nc2ccccc2/C1=C1/Nc2ccccc2/C1=N\OCCC(O)CO (configuration not stated)
9
Cc1cc(Nc2nc(-c3ccccc3)nc3ccccc23)n[nH]1
19
Cc1ccc(S(=O)(=O)/C=C/C#N)cc1
87
COc1ccc(CNc2nc(N(CCO)CCO)nc3c2ncn3C(C)C)cc1
69
O=C1Nc2ccc(Br)cc2/C1=C\c1cc2c([nH]1)CCCC2
59
O=C1NC(=O)c2cc(Nc3ccc(F)cc3)c(Nc3ccc(F)cc3)cc21
69
Cc1cncc2cccc(S(=O)(=O)N3CCCN(C(=O)CN)C[C@H]3C)c12
68
CN(C)c1ccc(/C=C2\C(=O)Nc3ccccc32)cc1
81
O=C(Nc1cccc(Nc2cc(Nc3cccc(C(F)(F)F)c3)ncn2)c1)C1CC1
89
O=[N+]([O-])c1ccc(-c2nc(-c3ccc(F)cc3)c(-c3ccncc3)[nH]2)cc1
87
Nc1cccc(-c2cc3c(Oc4cccc(O)c4)ncnc3[nH]2)c1
70
O=C1NC(=O)/C(=C/c2ccc3c(c2)OC(F)(F)O3)S1
80
O=Nc1c(-c2c(O)[nH]c3ccccc23)[nH]c2ccccc12
9
Oc1n[nH]c2nnc(-c3c(-c4ccccc4)nn4ccccc34)cc12
67
CO[C@@H]1[C@H](N(C)C(=O)c2ccccc2)C[C@H]2O[C@]1(C)n1c3ccccc3c3c4c(c5c6ccccc6n2c5c31)C(=O)NC4
2
CC[n+]1c(/C=C/N(C)c2ccccc2)n(-c2ccccc2)c2ccc(-c3nc4ccccc4s3)cc21
104
N#Cc1cnc2cnc(NCc3cccnc3)cc2c1Nc1ccc(F)c(Cl)c1
5
COc1cc2ncnc(Nc3ccc(O)c(Br)c3)c2cc1OC
41
Oc1c2ccccc2c2c3c(cccc13)N=N2
35
CC(=O)O/N=C1\C(=C2\C(=O)Nc3cc(Br)ccc32)Nc2ccccc21
57
c1ccc(-c2n[nH]c3c2oc2ccccc23)cc1
67
COc1ccc(S(=O)(=O)N(CCO)c2ccccc2CN(C)C/C=C/c2ccc(Cl)cc2)cc1
73
Oc1ccc(Nc2nc(-c3ccc(Cl)cc3)cs2)cc1
114
